Ref: paper PMC11139994

ASSAY SYSTEM: AIG1 (androgen induced gene 1) (Mus musculus, UniProt Q9D8B1)
Construct: endogenous AIG1 in mouse brain membrane proteome
Sequence (Q9D8B1 1-238): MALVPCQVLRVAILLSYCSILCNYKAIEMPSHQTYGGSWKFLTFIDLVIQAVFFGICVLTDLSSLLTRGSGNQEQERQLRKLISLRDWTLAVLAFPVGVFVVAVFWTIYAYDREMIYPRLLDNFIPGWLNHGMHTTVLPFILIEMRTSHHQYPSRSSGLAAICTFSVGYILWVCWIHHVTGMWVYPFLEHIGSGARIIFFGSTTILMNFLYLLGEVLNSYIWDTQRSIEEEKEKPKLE
PROCEDURE DETAILS: competitive gel-based ABPP (FP-Rh) in mouse brain membrane proteome; also MS-based ABPP and in vivo target engagement
QUANTITY: pIC50
Answers are plain numbers, as −log10 of the molar value.

Input "CN(c1ccn(C(=O)N2CCc3ccc(Oc4ccccc4)cc3C2)n1)S(C)(=O)=O" . Output pIC50: 8.80
